Value source: patent USRE40086E1

system: E. coli ATCC 25922; test: MIC, agar dilution; format: cell-based; conditions: E. coli ATCC 25922; Table IA; unit assumed
Please respond with t when measured Antibacterial activity (MIC) is strictly beneath 1 µg/mL, and with f in all other cases.

Answered examples (4):
Consider CC(C)CNCC(=O)Nc1cc(N(C)C)c2c(c1O)C(=O)C1=C(O)C3(O)C(=O)C(C(N)=O)=C(O)C(N(C)C)C3CC1C2.Cl.Cl (stereo not drawn) [TT] . Does its Antibacterial activity (MIC) lie strictly below 1 µg/mL?
t

// query: CN(C)CC(=O)Nc1cc(N(C)C)c2c(c1O)C(=O)C1=C(O)[C@]3(O)C(=O)C(C(N)=O)=C(O)[C@@H](N(C)C)C3CC1C2.Cl.Cl (stereo partly drawn) [KK]
t

// query: CN(C)c1cc(NC(=O)Cn2ccnc2)c(O)c2c1CC1CC3[C@H](N(C)C)C(O)=C(C(N)=O)C(=O)[C@@]3(O)C(O)=C1C2=O.Cl.Cl (stereo partly drawn) [VV]
f

// query: CN(C)c1cc(NC(=O)CBr)c(O)c2c1CC1CC3[C@H](N(C)C)C(O)=C(C(N)=O)C(=O)[C@@]3(O)C(O)=C1C2=O.Cl.Cl (stereo partly drawn) [III]
f

Next:
Consider CN(C)CC(=O)Nc1cc(N(C)C)c2c(c1O)C(=O)C1=C(O)[C@]3(O)C(=O)C(C(=O)NCN4CCCC4)=C(O)[C@@H](N(C)C)C3CC1C2 (stereo partly drawn) [FFF] . Does its Antibacterial activity (MIC) lie strictly below 1 µg/mL?
t

---

system: E. coli ATCC 25922; assay: MIC, agar dilution; format: cell-based; settings: E. coli ATCC 25922; Table IA; unit assumed
Item-by-item account of Antibacterial activity (MIC)
Numeric answer only, unit µg/mL assumed.

Need Antibacterial activity (MIC), item CN(C)CCCC(=O)Nc1cc(N(C)C)c2c(c1O)C(=O)C1=C(O)[C@]3(O)C(=O)C(C(N)=O)=C(O)[C@@H](N(C)C)C3CC1C2.Cl.Cl (stereo partly drawn) [ZZ]
8

Next:
Need Antibacterial activity (MIC), item CC(C(=O)Nc1cc(N(C)C)c2c(c1O)C(=O)C1=C(O)C3(O)C(=O)C(C(N)=O)=C(O)C(N(C)C)C3CC1C2)N1CCCC1.Cl.Cl (stereo not drawn) [AAA]
0.25

---

system: S. aureus UBMS 88-4 (Sensitive); assay: MIC, agar dilution; assay type: cell-based; conditions: S. aureus UBMS 88-4 (Sensitive)
observable: log10 MIC (log10 of the value in µg/mL)
Scale type: logarithmic (base 10). Underlying MIC unit: µg/mL.

Answered examples (2):
Need log10 MIC, item CN(C)c1cc(NC(=O)COCc2ccccc2)c(O)c2c1CC1CC3C(N(C)C)C(O)=C(C(N)=O)C(=O)C3(O)C(O)=C1C2=O (stereo not drawn) [J]
0.30

// query: CN(C)c1cc(NC(=O)c2ccc(N)cc2)c(O)c2c1CC1CC3C(N(C)C)C(O)=C(C(N)=O)C(=O)C3(O)C(O)=C1C2=O.O=S(=O)(O)O (stereo not drawn) [X]
0.00

Attention now shifts to the item below.
Need log10 MIC, item CC(=O)OCC(=O)Nc1cc(N(C)C)c2c(c1O)C(=O)C1=C(O)[C@]3(O)C(=O)C(C(N)=O)=C(O)[C@@H](N(C)C)[C@@H]3C[C@@H]1C2 [K]
-0.92

---

system: E. coli J3272 Tet sens.; assay: MIC, agar dilution (Table IA); type: cell-based; conditions: unit assumed
Item-by-item account of Antibacterial activity (MIC)
Numeric answer only, unit µg/mL assumed.

Please state recorded Antibacterial activity (MIC) (tested on E. coli J3272 Tet sens.) of CCNCC(=O)Nc1cc(N(C)C)c2c(c1O)C(=O)C1=C(O)[C@]3(O)C(=O)C(C(N)=O)=C(O)[C@@H](N(C)C)C3CC1C2.Cl.Cl (stereo partly drawn)
1

Attention now shifts to the item below.
Please state recorded Antibacterial activity (MIC) (tested on E. coli J3272 Tet sens.) of CNC(C)C(=O)Nc1cc(N(C)C)c2c(c1O)C(=O)C1=C(O)[C@]3(O)C(=O)C(C(N)=O)=C(O)[C@@H](N(C)C)C3CC1C2.Cl.Cl (stereo partly drawn)
0.5

---

system: E. coli ATCC 25922; assay: MIC, agar dilution; type: cell-based; conditions: E. coli ATCC 25922; Table IA; unit assumed
Where a name gives a salt, the structure may show the parent alone.
observable: Antibacterial activity (MIC) (µg/mL)
Numeric answer only, unit µg/mL assumed.

Answered examples (2):
Need Antibacterial activity (MIC), item CCNCC(=O)Nc1cc(N(C)C)c2c(c1O)C(=O)C1=C(O)[C@]3(O)C(=O)C(C(N)=O)=C(O)[C@@H](N(C)C)C3CC1C2.Cl.Cl (stereo partly shown) [OO]
1

// query: CN(C)c1cc(NC(=O)CNC2CC2)c(O)c2c1CC1CC3C(N(C)C)C(O)=C(C(N)=O)C(=O)C3(O)C(O)=C1C2=O.Cl.Cl (stereo not shown) [QQ]
2

Next:
Need Antibacterial activity (MIC), item CN(C)c1cc(NC(=O)CN2CCCC2)c(O)c2c1CC1CC3[C@H](N(C)C)C(O)=C(C(N)=O)C(=O)[C@@]3(O)C(O)=C1C2=O (stereo partly shown) [SS, dihydrochloride]
0.25

// query: CC(C(=O)Nc1cc(N(C)C)c2c(c1O)C(=O)C1=C(O)[C@]3(O)C(=O)C(C(N)=O)=C(O)[C@@H](N(C)C)C3CC1C2)N(C)C.Cl.Cl (stereo partly shown) [XX]
0.5

// query: CCCCNCC(=O)Nc1cc(N(C)C)c2c(c1O)C(=O)C1=C(O)C3(O)C(=O)C(C(N)=O)=C(O)C(N(C)C)C3CC1C2.Cl.Cl (stereo not shown) [PP]
0.25

// query: CN(C)CC(=O)Nc1cc(N(C)C)c2c(c1O)C(=O)C1=C(O)[C@]3(O)C(=O)C(C(=O)NCN4CCOCC4)=C(O)[C@@H](N(C)C)C3CC1C2 (stereo partly shown) [GGG]
0.12

// query: CN(C)c1cc(NC(=O)CN2CCC2)c(O)c2c1CC1CC3C(N(C)C)C(O)=C(C(N)=O)C(=O)C3(O)C(O)=C1C2=O (stereo not shown) [LLL]
0.25

---

tested on: S. mariescens FDOR 8733; experiment: MIC, agar dilution (Table IA); assay type: cell-based; details: unit assumed
Where a name gives a salt, the structure may show the parent alone.
observable: Antibacterial activity (MIC) (µg/mL)
Numeric answer only, unit µg/mL assumed.

Answered examples (2):
Need Antibacterial activity (MIC), item CCCCCCNCC(=O)Nc1cc(N(C)C)c2c(c1O)C(=O)C1=C(O)[C@]3(O)C(=O)C(C(N)=O)=C(O)[C@@H](N(C)C)C3CC1C2 (stereo partly drawn) [BBB, dihydrochloride]
4

// query: CNCC(=O)Nc1cc(N(C)C)c2c(c1O)C(=O)C1=C(O)[C@]3(O)C(=O)C(C(N)=O)=C(O)[C@@H](N(C)C)C3CC1C2.Cl.Cl (stereo partly drawn)
16

Attention now shifts to the item below.
Need Antibacterial activity (MIC), item CN(C)CC(=O)Nc1cc(N(C)C)c2c(c1O)C(=O)C1=C(O)[C@]3(O)C(=O)C(C(=O)NCN4CCCCC4)=C(O)[C@@H](N(C)C)C3CC1C2 (stereo partly drawn)
4

---

test system: E. coli PRP1 TetA; assay: MIC, agar dilution (Table IA); format: cell-based; details: unit assumed
Item-by-item account of Antibacterial activity (MIC)
Numeric answer only, unit µg/mL assumed.

Need Antibacterial activity (MIC), item CN(C)c1cc(NC(=O)CNCc2ccccc2)c(O)c2c1CC1CC3C(N(C)C)C(O)=C(C(N)=O)C(=O)C3(O)C(O)=C1C2=O.Cl.Cl (stereo not shown)
4

Attention now shifts to the item below.
Need Antibacterial activity (MIC), item CC(C(=O)Nc1cc(N(C)C)c2c(c1O)C(=O)C1=C(O)[C@]3(O)C(=O)C(C(N)=O)=C(O)[C@@H](N(C)C)C3CC1C2)N(C)C.Cl.Cl (stereo partly shown)
1

---

test system: S. aureus UBMS 88-5 (tetM); test: MIC, agar dilution; format: cell-based; settings: S. aureus UBMS 88-5 (tetM)
observable: MIC (µg/mL)
Numeric answer only, unit µg/mL assumed.

Answered examples (3):
Need MIC, item CN(C)c1cc(NC(=O)COCc2ccccc2)c(O)c2c1CC1CC3C(N(C)C)C(O)=C(C(N)=O)C(=O)C3(O)C(O)=C1C2=O (stereo not shown)
4

// query: CN(C)c1cc(NC(=O)c2ccco2)c(O)c2c1CC1CC3C(N(C)C)C(O)=C(C(N)=O)C(=O)C3(O)C(O)=C1C2=O (stereo not shown)
16

// query: CN(C)c1cc(NS(=O)(=O)c2cccs2)c(O)c2c1CC1CC3C(N(C)C)C(O)=C(C(N)=O)C(=O)C3(O)C(O)=C1C2=O (stereo not shown)
0.5

Attention now shifts to the item below.
Need MIC, item CN(C)c1cc(NC(=O)CN)c(O)c2c1CC1CC3C(N(C)C)C(O)=C(C(N)=O)C(=O)C3(O)C(O)=C1C2=O.O=C(O)C(F)(F)F (stereo not shown)
1
